assay: folding stability dG unfold from chymotrypsin proteolysis; higher = more stable
So I've got a bunch of sequences here, and I need their folding stability dG unfold values.
One number for each entry, in kcal/mol.

Examples with their reported folding stability dG unfold follow.
SAGGSAGGSARTLTLTFLTDSPEVAERFVRELREQKPLRVEASYRRLPDGRYLVTVTIHLDSAGGSAGGSAG [r3_273_TrMRF]
5.14
SAGGSAGGIEVKIEGEIKPVKVTVSFSTANGDGNPKEYPVEKTYLVVDIKIEVNSPEAAKKINISAGGSAGG [r6_149_TrMRF]
3
SAGGSAPVVEYEFVDPGNGRKVKIEVYPHPDGNYQMSIEVYDPGKPVEKIPFWMPPGEMPIEDLLKSAGGSA [r15_147_TrROS]
0.565
SAGGSAGGSAGDNIYVFEIDIKIKPRKDPDGKWQPEIEINIKIKDIKPIPPNDPELKDLLSAGGSAGGSAGG [r11_236_TrROS]
1.99

Please go through the list and note folding stability dG unfold for each sequence.
1. SAGGSAGGSMETTREELPPELTVERVTEREPGEGRITVRVKVYRPDGTLLSEEVVERDPEDLESAGGSAGGS [r12_240_JUSTAS]
2. SAGGSASLFIPVPPTDTSPVTVEITIGNSKYRATLTVDPNNPNLMTVTLTDPNGGATTTETVPLLDSAGGSA [r15_328_JUSTAS]
3. SAGMVTITVETTDPQGNWTTKTYEFPLDPGYSLDDVIKRHSPPNAKKYEVTKTEPPPPVTEIKLTVEPSSAG [r5_227_JUSTAS]
4. SAGGSAGGSAGGMVVKIKVDGKTITLSAEELKKNKDLLKELEKKGYKIVSIEVFEPEEESAGGSAGGSAGGS [r10_396_TrROS_Hall]
5. SAGGMTITIPVTESGSLEEALALAERVAEEARAAGLEEVTITVTVYDPANGEVLYTKTRRVPVRPEASAGGS [r8_33_JUSTAS]

[out]
[0.166, 1.78, 1.1, 1.71, 2.27]

State recorded folding stability dG unfold for all listed sequences.
1. SAGGSAGGSAGGEIKGKKFKIVKIVEVRYDKETKEFYVRIYIEDTNEIITVRLEDLPEELSAGGSAGGSAGG [r7_304_TrROS_Hall]
2. SAGGSAGGSAGPMWRIEVENPNGRTPEIWIPPNMDTPEELVDELKKHFPGLKKVKIEPYPSAGGSAGGSAGG [r11_311_TrROS]
3. SMLKPGDIVKLPNGPIYVVKKLTISYDPSTSPPKLELELVPLGEPKPVLKEYTLPDGSTKTEIGYYWTGPSA [r9_914_TrMRF]
4. SAGGSAGGGGGFRVKAEVKHGGKEYPMEILIDPSEGNINIQMPNGKSITLPLNDVKIDEVEPVNSAGGSAGG [r6_185_TrROS]

[out]
[2.29, 0.184, 0.995, 0.341]

[in] State the recorded folding stability dG unfold for this entry: SAGGSAGGSAGGMTPIEKEEPHHHMTFTREGDTVSLETFPGSGSIRKTLPSEEEVEKLLSAGGSAGGSAGGS [r10_1104_JUSTAS]
[out] 0.156

###

Exercise: for every item that follows, state its recorded folding stability dG unfold.
experiment: folding stability dG unfold from trypsin proteolysis; higher = more stable
Could you give the number and then its unit, please?

See these solved cases before continuing.
SAGGSAGGSGDKDEVDPNKNISPIPPVKATIFPPDGTPRTVTFTSEEELKAYAEARGWTIEVPSAGGSAGGS [r12_244_JUSTAS]
0.000698 kcal/mol
SAGGSAKRYFIMIDIRYPGDGKEIYPLVIPIPPGEPISIEDILDEIGFPPENADNVDIEIHTFRAKSAGGSA [r15_665_TrROS]
1.56 kcal/mol
SAGGSAGGSMEPRPVVITFRDPEGNFIGTVELPAEFESEEEALAAAEAVRAANPGYTVEIEGLSAGGSAGGS [r20_201_JUSTAS]
1.67 kcal/mol
SAGGSAGGSGMKITSISKLPDGSYLVTTQDPGKGTPTTVPFSTPEEGKKLKKELEEKGGKVELSAGGSAGGS [r20_177_JUSTAS]
-0.0663 kcal/mol

Working through the 3 sequences below one at a time, give folding stability dG unfold for each.
1. EMTEEELREKLPELSPEELEELARKLAEELGIEEVEEVEVVSVKPDGTIEVKVKLKDGEELTIEIPLEELLS [r1_435_TrROS_Hall]
2. SAGGSAGGSEEEKLKKLKEKLKPPKIKVKIEVKVEYDKETGKLKVEATVEINGKKYKLTIEFPSAGGSAGGS [r20_230_TrROS_Hall]
3. SAGGGSSSTTTSTTTTTSTSIEPLPGDREVVVTTTTTTTTTTTTTTPPDGSSTSTTTTTTTTTTTVTLASAG [r5_428_JUSTAS]

[out]
1: 2.8 kcal/mol; 2: 3.11 kcal/mol; 3: 2.57 kcal/mol

Source listed as the supplement of paper PMC12764529.
